Quick list: pIC50 per entry.
TARGET UNDER TEST: Avi-KRAS WT (1-169) GppNHp/RAF1 RBD-3xFLAG (52-151) (Homo sapiens)
Construct: Avi-KRAS WT (1-169)
Sequence (P01116 1-169 isoform P01116-2): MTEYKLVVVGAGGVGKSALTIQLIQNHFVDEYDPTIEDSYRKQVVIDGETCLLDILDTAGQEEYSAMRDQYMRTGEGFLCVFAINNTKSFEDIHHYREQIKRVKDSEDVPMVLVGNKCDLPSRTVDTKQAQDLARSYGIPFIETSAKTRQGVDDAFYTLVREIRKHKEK
EXPERIMENT DESCRIPTION: Raf1-KRAS WT-GppNHP disruption HTRF assay (Biological Example 1)
Format: binding
COND: KRAS WT-GppNHp/RAF1 RBD HTRF
pIC50: −log10 of the molar value.

• CCN(c1nc(OC[C@@]23CCCN2C[C@H](F)C3)nc2c(F)c(-c3ccc(F)c4sc(N)c(C#N)c34)c(C(F)(F)F)cc12)[C@H]1CCN(C(=O)C(C)C)C1 (single isomer, unassigned) [Compound 469] = > 7.00

Read the next record carefully.
## Input # get_value(readout='pIC50', item= CCN(c1nc(OC[C@@]23CCCN2C[C@H](F)C3)nc2c(F)c(-c3ccc(F)c4sc(N)c(C#N)c34)c(C(F)(F)F)cc12)[C@H]1CCN(C(=O)C(C)C)C1 (atropisomer, axis not shown) [Compound 468] )
## Output < 5.00
